# target_of_assay: Potassium Channel hERG (Homo sapiens (Human))
# Sequence (Q12809 whole entry): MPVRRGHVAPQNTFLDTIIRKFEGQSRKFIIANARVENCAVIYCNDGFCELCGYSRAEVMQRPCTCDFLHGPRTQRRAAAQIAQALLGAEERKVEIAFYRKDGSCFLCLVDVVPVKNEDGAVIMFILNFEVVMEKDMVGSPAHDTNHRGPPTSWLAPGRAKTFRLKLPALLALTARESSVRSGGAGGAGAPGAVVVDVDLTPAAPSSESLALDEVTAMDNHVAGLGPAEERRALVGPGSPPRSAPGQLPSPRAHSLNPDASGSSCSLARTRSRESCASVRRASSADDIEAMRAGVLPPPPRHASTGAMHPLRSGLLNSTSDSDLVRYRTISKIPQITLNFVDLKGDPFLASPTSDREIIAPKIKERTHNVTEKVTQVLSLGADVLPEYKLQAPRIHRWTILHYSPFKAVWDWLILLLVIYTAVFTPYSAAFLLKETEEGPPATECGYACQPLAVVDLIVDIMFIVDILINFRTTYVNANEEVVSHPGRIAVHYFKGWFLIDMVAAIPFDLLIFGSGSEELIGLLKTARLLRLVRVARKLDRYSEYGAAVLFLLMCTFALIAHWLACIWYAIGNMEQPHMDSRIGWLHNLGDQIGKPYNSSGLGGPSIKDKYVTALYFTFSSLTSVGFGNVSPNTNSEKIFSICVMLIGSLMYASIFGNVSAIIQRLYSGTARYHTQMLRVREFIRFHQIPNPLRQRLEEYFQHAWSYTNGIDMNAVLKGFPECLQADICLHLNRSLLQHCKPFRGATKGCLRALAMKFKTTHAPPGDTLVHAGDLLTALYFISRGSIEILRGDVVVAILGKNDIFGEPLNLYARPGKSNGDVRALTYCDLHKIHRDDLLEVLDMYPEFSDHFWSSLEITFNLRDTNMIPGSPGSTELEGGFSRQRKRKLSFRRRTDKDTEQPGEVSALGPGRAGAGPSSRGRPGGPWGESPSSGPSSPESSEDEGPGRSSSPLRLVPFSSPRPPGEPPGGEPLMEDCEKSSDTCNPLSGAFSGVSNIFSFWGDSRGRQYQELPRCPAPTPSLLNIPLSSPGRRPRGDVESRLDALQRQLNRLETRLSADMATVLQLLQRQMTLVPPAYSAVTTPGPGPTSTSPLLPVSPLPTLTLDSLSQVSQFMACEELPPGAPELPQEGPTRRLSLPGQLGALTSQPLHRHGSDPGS
# protocol_details: Radioligand binding assay No. 265900
# experimental_context: test substance 10 μM, read-out: Inhibitory rate (%), Potassium Channel hERG
assay_metric: inhibition at 10 µM (%)
Numbers only, in %.

Reported inhibition at 10 µM ( Nc1ccc(-c2ccc3ncc4c(=O)[nH]c(=O)n(-c5cccc(C(F)(F)F)c5)c4c3n2)cn1 ) = 2

* * *

# target_of_assay: EGFR (Homo sapiens (Human))
# Sequence (P00533 25-1210, species assumed): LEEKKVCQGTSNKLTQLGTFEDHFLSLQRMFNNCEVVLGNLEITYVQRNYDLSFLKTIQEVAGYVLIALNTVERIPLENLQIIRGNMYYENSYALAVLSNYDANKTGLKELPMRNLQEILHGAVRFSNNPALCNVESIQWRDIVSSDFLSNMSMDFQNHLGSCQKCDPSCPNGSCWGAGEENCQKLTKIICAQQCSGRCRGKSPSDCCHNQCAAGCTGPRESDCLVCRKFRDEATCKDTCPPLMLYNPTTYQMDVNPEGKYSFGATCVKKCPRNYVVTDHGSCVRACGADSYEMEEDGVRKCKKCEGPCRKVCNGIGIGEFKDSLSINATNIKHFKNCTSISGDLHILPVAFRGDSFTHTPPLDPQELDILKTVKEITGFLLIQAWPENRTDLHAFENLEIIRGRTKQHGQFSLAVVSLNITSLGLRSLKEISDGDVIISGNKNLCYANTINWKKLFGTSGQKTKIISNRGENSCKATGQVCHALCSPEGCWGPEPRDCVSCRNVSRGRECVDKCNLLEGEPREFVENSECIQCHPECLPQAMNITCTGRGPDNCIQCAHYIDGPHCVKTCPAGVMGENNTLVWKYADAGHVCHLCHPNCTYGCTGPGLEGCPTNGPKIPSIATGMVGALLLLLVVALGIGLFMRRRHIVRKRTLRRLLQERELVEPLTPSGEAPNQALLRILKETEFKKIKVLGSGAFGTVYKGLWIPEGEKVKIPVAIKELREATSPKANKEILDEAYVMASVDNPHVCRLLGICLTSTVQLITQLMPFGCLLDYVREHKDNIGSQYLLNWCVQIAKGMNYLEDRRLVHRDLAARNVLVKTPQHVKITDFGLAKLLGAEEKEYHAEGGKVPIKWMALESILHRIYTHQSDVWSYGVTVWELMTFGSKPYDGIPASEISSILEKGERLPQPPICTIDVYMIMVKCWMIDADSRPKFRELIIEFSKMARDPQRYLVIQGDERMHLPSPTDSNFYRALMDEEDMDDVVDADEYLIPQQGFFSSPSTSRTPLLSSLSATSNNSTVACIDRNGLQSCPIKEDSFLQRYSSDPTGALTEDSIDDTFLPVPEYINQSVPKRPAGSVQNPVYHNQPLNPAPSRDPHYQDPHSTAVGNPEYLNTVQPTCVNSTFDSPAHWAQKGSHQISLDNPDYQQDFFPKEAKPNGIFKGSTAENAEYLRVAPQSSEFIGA
# protocol_details: Kinase selectivity, Mobility shift assay
# Assay type: biochemical
assay_metric: IC50

Lab note: Nc1ccc(-c2ccc3ncc4c(=O)[nH]c(=O)n(-c5cccc(C(F)(F)F)c5)c4c3n2)cn1 [Compound 5] gave IC50 of > 10000 nM
